# Measured target: T1, KDM5C ARID (Homo sapiens, UniProt P41229 73-188)
# T1 sequence: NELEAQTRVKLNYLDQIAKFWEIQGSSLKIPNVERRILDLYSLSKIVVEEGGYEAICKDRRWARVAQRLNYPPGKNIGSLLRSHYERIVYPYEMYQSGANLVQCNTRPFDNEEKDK
# Experiment description: EMSA; apparent Kd; EMSA: 50 mM HEPES pH 7.5, 50 mM KCl, 1 mM BME, 0.01% Tween-20, 0.01% BSA, 5% sucrose, 1 h on ice; 100 nM nucleosome or 147 bp DNA, 500 nM 20 bp DNA; gel at 4 C.
# Stated conditions: protein: recombinant; tags: 6xHis-SUMO cleaved
pKd: −log10 of the molar value.

[
  {
    "Binder": "5' flanking (linker) DNA 20 bp (dsDNA) DNA 1: GGACCCTATACGCGGCCGCC DNA 2: GGCGGCCGCGTATAGGGTCC",
    "pKd": 5.00
  }
]
